Target Or System: RhlB (DEAD box RNA helicase) (Deinococcus radiodurans R1)
Sequence: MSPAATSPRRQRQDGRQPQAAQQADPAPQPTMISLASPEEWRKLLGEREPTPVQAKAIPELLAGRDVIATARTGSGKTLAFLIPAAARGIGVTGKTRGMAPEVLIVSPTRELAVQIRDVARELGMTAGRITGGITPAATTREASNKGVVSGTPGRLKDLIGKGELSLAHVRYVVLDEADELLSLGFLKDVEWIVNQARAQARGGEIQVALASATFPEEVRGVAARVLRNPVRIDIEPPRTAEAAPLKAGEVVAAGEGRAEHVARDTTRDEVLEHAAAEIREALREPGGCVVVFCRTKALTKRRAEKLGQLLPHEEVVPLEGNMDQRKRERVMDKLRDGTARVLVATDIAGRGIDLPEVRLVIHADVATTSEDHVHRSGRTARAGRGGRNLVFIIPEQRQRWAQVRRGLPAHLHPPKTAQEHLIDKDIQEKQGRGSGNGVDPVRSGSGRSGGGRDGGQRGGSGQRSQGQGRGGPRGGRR
Test Method Notes: EMSA
Setup Conditions: 8-oxoG at positions 16, 22; EMSA: 20 mM Tris-HCl pH 8.0, 1 mM MgCl2, 20 mM KCl, 10 mM Na phosphate pH 8.0, 10% glycerol, 500 nM heparin, 1 nM RNA, 37 C 1 h (PNPase: TMK, 50 mM Tris-HCl pH …)
Quantity: Kd

Residue Codes | Quantity | Measurement
NNNGNNNNNGNNNNNGNNNNNGNN [8-oxoG x2 24-mer (random N, degenerate)] | Kd | 355 nM

* * *

Target Or System: RhlB (DEAD box RNA helicase) (Deinococcus radiodurans R1) (UniProt Q9RXH8)
Sequence: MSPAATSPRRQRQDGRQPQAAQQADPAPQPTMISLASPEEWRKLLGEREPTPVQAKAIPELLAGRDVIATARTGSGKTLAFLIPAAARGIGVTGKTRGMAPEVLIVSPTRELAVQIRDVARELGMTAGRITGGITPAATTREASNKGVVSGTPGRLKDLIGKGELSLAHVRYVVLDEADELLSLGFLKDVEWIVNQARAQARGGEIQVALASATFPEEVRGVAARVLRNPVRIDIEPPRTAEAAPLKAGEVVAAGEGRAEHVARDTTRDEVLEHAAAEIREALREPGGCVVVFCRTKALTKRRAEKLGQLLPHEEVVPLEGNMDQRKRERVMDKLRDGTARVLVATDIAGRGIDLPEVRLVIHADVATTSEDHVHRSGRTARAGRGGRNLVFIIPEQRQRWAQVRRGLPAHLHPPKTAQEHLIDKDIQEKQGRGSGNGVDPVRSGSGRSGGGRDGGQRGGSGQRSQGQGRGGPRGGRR
Test Method Notes: EMSA
Setup Conditions: 8-oxoG at positions 4, 10, 16, 22; EMSA: 20 mM Tris-HCl pH 8.0, 1 mM MgCl2, 20 mM KCl, 10 mM Na phosphate pH 8.0, 10% glycerol, 500 nM heparin, 1 nM RNA, 37 C 1 h (PNPase: TMK, 50 mM Tris-HCl pH …)
pKd: −log10 of the molar value.

Residue Codes | pKd
NNNGNNNNNGNNNNNGNNNNNGNN [8-oxoG x4 24-mer (random N, degenerate)] | 6.47

* * *

Target Or System: RhlB (DEAD box RNA helicase) (Deinococcus radiodurans R1)
Sequence: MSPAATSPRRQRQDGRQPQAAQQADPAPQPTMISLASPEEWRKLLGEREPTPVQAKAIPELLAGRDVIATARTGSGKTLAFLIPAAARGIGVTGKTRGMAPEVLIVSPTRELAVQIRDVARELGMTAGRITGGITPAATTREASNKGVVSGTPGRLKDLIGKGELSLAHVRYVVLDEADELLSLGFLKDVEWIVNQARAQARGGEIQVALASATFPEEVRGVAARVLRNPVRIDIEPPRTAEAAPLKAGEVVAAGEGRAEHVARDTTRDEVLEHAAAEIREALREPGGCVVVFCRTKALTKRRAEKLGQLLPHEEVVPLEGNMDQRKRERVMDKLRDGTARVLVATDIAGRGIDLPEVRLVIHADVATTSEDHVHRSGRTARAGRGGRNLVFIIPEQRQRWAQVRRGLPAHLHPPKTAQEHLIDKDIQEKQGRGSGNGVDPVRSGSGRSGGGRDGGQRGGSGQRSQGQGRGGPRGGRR
Test Method Notes: EMSA
Setup Conditions: 8-oxoG at positions 10, 16, 22; EMSA: 20 mM Tris-HCl pH 8.0, 1 mM MgCl2, 20 mM KCl, 10 mM Na phosphate pH 8.0, 10% glycerol, 500 nM heparin, 1 nM RNA, 37 C 1 h (PNPase: TMK, 50 mM Tris-HCl pH …)
Quantity: Kd (nM)

Residue Codes | Unit Spec | Measurement
NNNGNNNNNGNNNNNGNNNNNGNN [8-oxoG x3 24-mer (random N, degenerate)] | nM | 351
